As shown below, each of these sequences has a reported folding stability dG unfold value.
# assay.notes: folding stability dG unfold (combined trypsin and chymotrypsin); higher = more stable
Give a bare numeral; the unit kcal/mol is implied.

sequence.record: SDIEIERDPNMIRIEHTYPFDNYRVKISLYVMVGPDGQFMLMIPIEIELPPPPPTPEKDPNGKEKWKPDASA [r9_456_TrROS]
unit.descriptor: kcal/mol
folding stability dG unfold: 3.85
--
sequence.record: SAGGSAWIRINSPEMVEAFAKELKDEGWKLKDVDVQRDPNNGNVWFEIPIEHPNNGKKRELEIWFRSAGGSA [r15_123_TrROS]
unit.descriptor: kcal/mol
folding stability dG unfold: 0.141
--
sequence.record: SAGGSAMTPQTLTLPDGTQVTVYYDPSTGKYTITTTTTTPTAQGTGPTTTTTKTVDSEEELLAYLSSAGGSA [r15_31_JUSTAS]
unit.descriptor: kcal/mol
folding stability dG unfold: 4.5
--
sequence.record: SAGGSAGGSAGGLPEDDNYVRVKITFTIMMMEFDPKNGKMQMFPISIEIEIYIPPGAELSAGGSAGGSAGGS [r10_133_TrROS]
unit.descriptor: kcal/mol
folding stability dG unfold: 3.26

Consider the additional sequence presented here.
Could you share which folding stability dG unfold value was measured for SAGPWMPYYVKVKFPDEEKLEKLVDEIQDESGFNMQVKKNPENGTRTVRVNMPPNIMEALKKHGFEIVSAGG [r19_306_TrROS] ?
0.337
